- experimental.system: T1, hMPV PostF trimer (human metapneumovirus, strain B2)
- T1 construct: also called MPV PostF (dPFv1)
- test.protocol: BLI, mAb on anti-human Fc sensor
The reader will find reported Octet binding response values listed item by item below.
recorded.metric: Octet binding response

- M4B03 (antibody, V domains shown, IgG) VH: QVQLVQSGAEVKKPGASVKVSCKASGYIFSNYRMHWVRQAPGQRLEWMGWITAGSGNTRYSEQFQGRVAFTSDTDATTVSMELSGLRFEDTAVYFCAREYNWNDAFPYWGQGTLVIVSS VL: SYVLTQPPSVSVAPGQTARIPCGGNNIGSKSVHWYQQKSGRAPVLVVYDDSDRPPGIPDRFSGSNSGNTATLTINKIEAGDEADYYCHVSDDNSDHVFFGGGTQLTVL: -0.061 nm
- M2E01 (antibody, V domains shown, IgG) VH: QLQLQESGPGLVKPSETLSLTCTVSGGSISSSTYYWGWIRQPPGKGLEWIGTIYYSGSTDYNPSLKSRLTISVDTSKNQFSLRLRSVTAADTAVYYCARLVSPYDQFDYWGQGTLVTVSS VL: DIQMTQSPSSLSASVGDRVTITCRASQTITTYLSWYLQKPGKAPKLLIYAASSWQSGVPSRFSGSGSGTDFTLTISSLQPEDFATYYCQQSYSTPYTFGQGTKLEIK: -0.016 nm
- M2A02 (antibody, V domains shown, IgG) VH: QVQLVQSGAEVKRPGSSVKVSCKASGDIFSSHAISWVRQTPGQGLKWMGRIIPLVGIRNYAQDLQGRVTISADKSINTVYMELTNLRFDDTAVYYCARDRTDWSGGLDIWGQGTRVTVSS VL: EIVLTQSPATLSLSPGERATLSCRASQRIGSYLAWYQQKPGQAPRLLIYDASNRATGIPARFSGSGSGTDFTLTISRLEPEDSAIYYCQQRTDWFTFGGGTKVEIK: -0.0402 nm
